# test: MTT cell viability assay, normal MCF-10A cells
# Assay type: cell-based
# recorded-conditions: human, MCF-10A normal mammary epithelial cells
measure-name: viability at 72 h, 0.02 µM (%)

molecule	measure-name	recorded-value
COCCn1c2c([n+](Cc3cnccn3)c1C)C(=O)c1ccccc1C2=O [YM155, reference compound]	viability at 72 h, 0.02 µM	39.2

###

# test: MTT cell viability assay, normal MCF-10A cells
# Format: cell-based
# recorded-conditions: human, MCF-10A normal mammary epithelial cells

compound	viability at 72 h, 25 µM [%]
CC(=O)OC[C@@H]1O[C@H](n2cc(Cn3ccc4nc(-c5ccc6c(c5)OCO6)cc(=O)n43)nn2)[C@@H](OC(C)=O)[C@H](OC(C)=O)[C@H]1OC(C)=O (stereo in doubt)	86.8
COc1ccc(-c2cc(=O)n3c(ccn3Cc3cn([C@H]4O[C@H](COC(C)=O)[C@@H](OC(C)=O)[C@H](OC(C)=O)[C@@H]4OC(C)=O)nn3)n2)cc1	89.8
CC(=O)OC[C@@H]1O[C@H](n2cc(Cn3ccc4nc(-c5ccc(F)cc5)cc(=O)n43)nn2)[C@@H](OC(C)=O)[C@H](OC(C)=O)[C@H]1OC(C)=O (stereo in doubt)	87.8
CC(=O)OC[C@@H]1O[C@H](n2cc(Cn3ccc4nc(-c5ccc(C(F)(F)F)cc5)cc(=O)n43)nn2)[C@@H](OC(C)=O)[C@H](OC(C)=O)[C@@H]1OC(C)=O (stereo in doubt)	88.6
CC(=O)OC[C@@H]1O[C@H](n2cc(Cn3ccc4nc(-c5ccc(Br)cc5)cc(=O)n43)nn2)[C@@H](OC(C)=O)[C@H](OC(C)=O)[C@@H]1OC(C)=O (stereo in doubt)	99.6
COc1ccc(-c2cc(=O)n3c(ccn3Cc3cn([C@H]4O[C@@H](COC(C)=O)[C@H](OC(C)=O)[C@@H](OC(C)=O)[C@@H]4OC(C)=O)nn3)n2)cc1 (stereo in doubt)	88.6

###

# test: MTT cell viability assay, normal MCF-10A cells
# Format: cell-based
# recorded-conditions: human, MCF-10A normal mammary epithelial cells
measure-name: viability at 72 h, 50 µM (%)

compound	recorded-value
CC(=O)OC[C@@H]1O[C@H](n2cc(Cn3ccc4nc(-c5ccc(Br)cc5)cc(=O)n43)nn2)[C@@H](OC(C)=O)[C@H](OC(C)=O)[C@@H]1OC(C)=O (stereo in doubt)	87.6
COc1ccc(-c2cc(=O)n3c(ccn3Cc3cn([C@H]4O[C@H](COC(C)=O)[C@@H](OC(C)=O)[C@H](OC(C)=O)[C@@H]4OC(C)=O)nn3)n2)cc1	84.2
CC(=O)OC[C@@H]1O[C@H](n2cc(Cn3ccc4nc(-c5ccc6c(c5)OCO6)cc(=O)n43)nn2)[C@@H](OC(C)=O)[C@H](OC(C)=O)[C@H]1OC(C)=O (stereo in doubt)	84.8
CC(=O)OC[C@@H]1O[C@H](n2cc(Cn3ccc4nc(-c5ccc(C(F)(F)F)cc5)cc(=O)n43)nn2)[C@@H](OC(C)=O)[C@H](OC(C)=O)[C@@H]1OC(C)=O (stereo in doubt)	86.1
COc1ccc(-c2cc(=O)n3c(ccn3Cc3cn([C@H]4O[C@@H](COC(C)=O)[C@H](OC(C)=O)[C@@H](OC(C)=O)[C@@H]4OC(C)=O)nn3)n2)cc1 (stereo in doubt)	86.3
CC(=O)OC[C@@H]1O[C@H](n2cc(Cn3ccc4nc(-c5ccc(F)cc5)cc(=O)n43)nn2)[C@@H](OC(C)=O)[C@H](OC(C)=O)[C@H]1OC(C)=O (stereo in doubt)	85.6
